Where these numbers come from: the supplement of paper PMC4022240

Measured peptide microarray binding signal, listed per entry for reference.
target-of-assay: T1, HaloTag-ATRX ADD domain (163-292)
T1 chain: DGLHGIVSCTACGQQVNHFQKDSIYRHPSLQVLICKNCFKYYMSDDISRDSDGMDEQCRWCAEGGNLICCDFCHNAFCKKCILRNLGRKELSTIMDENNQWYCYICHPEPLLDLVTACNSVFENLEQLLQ
protocol-text: peptide microarray binding signal (635 nm), min-max normalized on array (fraction of array maximum); higher = stronger binding
recorded-conditions: peptide region: Unmod H2A variant; binder concentration: 50 nM
// no unit, no text: just the number

Consider the worked cases shown below.
[
  {
    "binder": "VTIAQGGVLPNIQ [Unmod H2A variant V T I A Q G G V L P N I Q]",
    "reported-value": 0.0238
  },
  {
    "binder": "GVLPNIQAVLLPK [Unmod H2A variant G V L P N I Q A V L L P K]",
    "reported-value": 0.0417
  },
  {
    "binder": "ILELAGNAARDNK [Unmod H2A variant I L E L A G N A A R D N K]",
    "reported-value": 0.048
  },
  {
    "binder": "RNDEELNKLLGRV [Unmod H2A variant R N D E E L N K L L G R V]",
    "reported-value": 0.0189
  },
  {
    "binder": "DNKKTRIIPRHLQ [Unmod H2A variant D N K K T R I I P R H L Q]",
    "reported-value": 0.0223
  }
]

Short answer for RNDEELNKLLGGV [Unmod H2A variant R N D E E L N K L L G G V] : peptide microarray binding signal was 0.0156

Short answer for GAGAPVYMAAVLE [Unmod H2A variant G A G A P V Y M A A V L E] : peptide microarray binding signal was 0.0137

Short answer for IQAVLLPKKTESH [Unmod H2A variant I Q A V L L P K K T E S H] : peptide microarray binding signal was 0.0353

Short answer for AGLQFPVGRIHRL [Unmod H2A variant A G L Q F P V G R I H R L] : peptide microarray binding signal was 0.0361

Short answer for LNKLLGKVTIAQG [Unmod H2A variant L N K L L G K V T I A Q G] : peptide microarray binding signal was 0.0216

Short answer for MAAVLEYLTAEIL [Unmod H2A variant M A A V L E Y L T A E I L] : peptide microarray binding signal was 0.0107

Short answer for AGLQFPVGRVHRL [Unmod H2A variant A G L Q F P V G R V H R L] : peptide microarray binding signal was 0.0745

Short answer for RSSRAGLQFPVGR [Unmod H2A variant R S S R A G L Q F P V G R] : peptide microarray binding signal was 0.0275
